Target: Pancreatic triacylglycerol lipase (Sus scrofa)
Sequence (P00591 whole entry): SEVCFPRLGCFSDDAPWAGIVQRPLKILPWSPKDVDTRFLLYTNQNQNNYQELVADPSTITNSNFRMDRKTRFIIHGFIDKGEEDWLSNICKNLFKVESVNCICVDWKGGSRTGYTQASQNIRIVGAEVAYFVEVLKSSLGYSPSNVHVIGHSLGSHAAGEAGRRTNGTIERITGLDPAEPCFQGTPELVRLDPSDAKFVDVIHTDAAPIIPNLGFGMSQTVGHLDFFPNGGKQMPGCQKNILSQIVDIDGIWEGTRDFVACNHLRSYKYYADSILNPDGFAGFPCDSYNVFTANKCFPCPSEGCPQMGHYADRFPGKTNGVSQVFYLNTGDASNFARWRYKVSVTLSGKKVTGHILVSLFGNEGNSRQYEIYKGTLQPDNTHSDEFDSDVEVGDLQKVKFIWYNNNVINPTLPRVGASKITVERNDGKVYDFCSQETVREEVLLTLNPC
Recorded measurements of IC50, one per entry

>  <Compound>
O=C(O)c1cc(O)c(O)c(O)c1 [GALLIC ACID]

>  <Target>
Pancreatic triacylglycerol lipase (Sus scrofa)

>  <Value>
> 1000 µM

$$$$

Hi! What's the reported IC50 for O=C(O)/C=C/c1ccc(O)c(O)c1 [CAFFEIC ACID] on Pancreatic triacylglycerol lipase (Sus scrofa)? > 1000 µM

Hi! What's the reported IC50 for O=C(/C=C/c1ccc(O)c(O)c1)O[C@@H](COC(=O)c1cc(O)c(O)c(O)c1)[C@@H](O)C(=O)O on Pancreatic triacylglycerol lipase (Sus scrofa)? 26 µM

Hi! What's the reported IC50 for O=c1c(O[C@@H]2O[C@H](CO)[C@H](O)[C@H](O)[C@H]2O[C@@H]2OC[C@@H](O)[C@H](O)[C@H]2O)c(-c2ccc(O)c(O)c2)oc2cc(O)cc(O)c12 on Pancreatic triacylglycerol lipase (Sus scrofa)? 300 µM

Hi! What's the reported IC50 for O=C(O)[C@H](O)[C@@H](O)CO [L-THREONIC ACID] on Pancreatic triacylglycerol lipase (Sus scrofa)? > 1000 µM

The values you see were collected from ChEMBL document CHEMBL2150990.
